Values compiled from patent US20260049140A1.

Target: T1, TCE-32
T1 construct: anti-CD3 scFv F240A; anti-TROP2 Fab F108A
Assay: competition ELISA, peptide titrated vs TCE binding to captured CD3
Ends that are not written are not given here.
reported_endpoint: IC50

# binder, IC50
rows = [
    ("YLCGPDTDETLACY (cysteine pairing not given here; also: biotinylated, site not given here) [Peptide-13]", "> 100 µM"),
]

With those in mind, consider the next binder.
Prompt line: Look at this binder and give its reported IC50. YLCGPDADETLACY (cysteine pairing not given here; also: biotinylated when captured in ELISA) [Peptide-12]
Response line: > 100 µM
